test system: DC-3F/AD; test: Cytotoxicity: reversal of resistance to actinomycin D (reversion factor), line DC-3F/AD; assay type: cell-based, Chinese hamster; conditions: compound 5 μM
quantity kind: reversion factor (RF)

CCOC(=O)C1=C(COCCOCCNCc2ccc(F)cc2)NC(C)=C(C(=O)OC)C1c1cccc(Cl)c1Cl (stereo not shown) [Example 4]	3,962.3
CCOC(=O)C1=C(COCCOCCNCc2ccsc2)NC(C)=C(C(=O)OC)C1c1cccc(Cl)c1Cl (stereo not shown) [Example 14]	4,463.2
CCOC(=O)C1=C(COCCOCCNCc2ccncc2)NC(C)=C(C(=O)OC)C1c1cccc(Cl)c1Cl (stereo not shown) [Example 15]	6,510.3
CCOC(=O)C1=C(COCCOCCNCc2cccnc2)NC(C)=C(C(=O)OC)C1c1cccc(Cl)c1Cl (stereo not shown) [Example 17]	8,600.0
CCOC(=O)C1=C(COCCOCCNCc2ccnc3ccccc23)NC(C)=C(C(=O)OC)C1c1cccc(Cl)c1Cl (stereo not shown) [Example 18]	5,018.4
CCOC(=O)C1=C(COCCOCCNCc2ccc(C#N)cc2)NC(C)=C(C(=O)OC)C1c1cccc(Cl)c1Cl (stereo not shown) [Example 8]	1,319.9
CCOC(=O)C1=C(COCCN)NC(C)=C(C(=O)OC)C1c1ccccc1Cl (stereo not shown) [AMLODIPINE, amlodipine, reference compound]	2.6

----------
Test system: DC-3F/AD
Assay: Cytotoxicity: reversal of resistance to actinomycin D (reversion factor), line DC-3F/AD
Type: cell-based, Chinese hamster
Conditions: compound 1 μM
Description: The parameter measured is the cytotoxicity of the antitumour drug, quantified in the absence and in the presence of the reversing compound. Two resistant cell lines were used: 1 Chinese hamster lung line, DC-3F/AD, the resistance of which was induced by actinomycin D. […] The compounds tested for their capacity to reverse the resistance are added at the same time as the cytotoxic agent. The cells are then incubated for 4 days.
quantity kind: reversion factor (RF)

CCOC(=O)C1=C(COCCOCCNCc2cccc(F)c2)NC(C)=C(C(=O)OC)C1c1cccc(Cl)c1Cl (stereo not shown)	7.6
CCOC(=O)C1=C(COCCOCCNCc2ccc([N+](=O)[O-])cc2)NC(C)=C(C(=O)OC)C1c1cccc(Cl)c1Cl (stereo not shown)	21.0
CCOC(=O)C1=C(COCCOCCNCc2ccncc2)NC(C)=C(C(=O)OC)C1c1cccc(Cl)c1Cl (stereo not shown)	301.4
CCOC(=O)C1=C(COCCOCCNCc2nccc3ccccc23)NC(C)=C(C(=O)OC)C1c1cccc(Cl)c1Cl (stereo not shown)	1.5
CCOC(=O)C1=C(COCCOCCNCc2ccsc2)NC(C)=C(C(=O)OC)C1c1cccc(Cl)c1Cl (stereo not shown)	8.2
CCOC(=O)C1=C(COCCOCCNCc2ccc3ccccc3c2)NC(C)=C(C(=O)OC)C1c1cccc(Cl)c1Cl (stereo not shown)	1.1
CCOC(=O)C1=C(COCCOCCNCc2ccnc3ccccc23)NC(C)=C(C(=O)OC)C1c1cccc(Cl)c1Cl (stereo not shown)	3.3
CCOC(=O)C1=C(COCCOCCNCc2cccs2)NC(C)=C(C(=O)OC)C1c1cccc(Cl)c1Cl (stereo not shown)	19.4
CCOC(=O)C1=C(COCCOCCNCc2ccc(C#N)cc2)NC(C)=C(C(=O)OC)C1c1cccc(Cl)c1Cl (stereo not shown)	11.4
CCOC(=O)C1=C(COCCOCCNCc2ccccn2)NC(C)=C(C(=O)OC)C1c1cccc(Cl)c1Cl (stereo not shown)	3.4
CCOC(=O)C1=C(COCCOCCNCc2cccc([N+](=O)[O-])c2)NC(C)=C(C(=O)OC)C1c1cccc(Cl)c1Cl (stereo not shown)	1.5
CCOC(=O)C1=C(COCCOCCNCc2cnc3ccccc3c2)NC(C)=C(C(=O)OC)C1c1cccc(Cl)c1Cl (stereo not shown)	10.2
CCOC(=O)C1=C(COCCN)NC(C)=C(C(=O)OC)C1c1ccccc1Cl (stereo not shown) [AMLODIPINE, amlodipine, reference compound]	1.0

----------
reversion factor (RF) for assorted molecules
test system: DC-3F/AD; experiment: Cytotoxicity: reversal of resistance to actinomycin D (reversion factor), line DC-3F/AD; type: cell-based, Chinese hamster; conditions: compound 5 μM
quantity kind: reversion factor (RF)

CCOC(=O)C1=C(COCCOCCNCc2ccc(SC)cc2)NC(C)=C(C(=O)OC)C1c1cccc(Cl)c1Cl (stereo not shown)	560.3
COc1ccc(CCN(C)CCCC(C#N)(c2ccc(OC)c(OC)c2)C(C)C)cc1OC (stereo not shown) [verapamil, reference compound]	3.1
CCOC(=O)C1=C(COCCOCCNC2c3ccccc3CCc3ccccc32)NC(C)=C(C(=O)OC)C1c1cccc(Cl)c1Cl (stereo not shown)	447.3

----------
system: KB-A1; assay: Cytotoxicity: reversal of resistance to adriamycin (reversion factor), line KB-A1; assay type: cell-based, Human; conditions: compound 1 μM
quantity kind: reversion factor (RF)

CCOC(=O)C1=C(COCCOCCNCc2ccc(F)cc2)NC(C)=C(C(=O)OC)C1c1cccc(Cl)c1Cl (stereo not drawn) [Example 4]	26.0
CCOC(=O)C1=C(COCCOCCNCc2cnc3ccccc3c2)NC(C)=C(C(=O)OC)C1c1cccc(Cl)c1Cl (stereo not drawn) [Example 23]	19.6
CCOC(=O)C1=C(COCCOCCNCc2ccncc2)NC(C)=C(C(=O)OC)C1c1cccc(Cl)c1Cl (stereo not drawn) [Example 15]	12.1
CCOC(=O)C1=C(COCCOCCNCc2nccc3ccccc23)NC(C)=C(C(=O)OC)C1c1cccc(Cl)c1Cl (stereo not drawn) [Example 19]	3.6
CCOC(=O)C1=C(COCCOCCNCc2ccnc3ccccc23)NC(C)=C(C(=O)OC)C1c1cccc(Cl)c1Cl (stereo not drawn) [Example 18]	4.3
CCOC(=O)C1=C(COCCOCCNCc2ccc3ccccc3c2)NC(C)=C(C(=O)OC)C1c1cccc(Cl)c1Cl (stereo not drawn) [Example 12]	1.2
CCOC(=O)C1=C(COCCOCCNCc2cccnc2)NC(C)=C(C(=O)OC)C1c1cccc(Cl)c1Cl (stereo not drawn) [Example 17]	10.5
CCOC(=O)C1=C(COCCOCCNCc2cccc3ccccc23)NC(C)=C(C(=O)OC)C1c1cccc(Cl)c1Cl (stereo not drawn) [Example 11]	1.7
CCOC(=O)C1=C(COCCOCCNCc2ccccn2)NC(C)=C(C(=O)OC)C1c1cccc(Cl)c1Cl (stereo not drawn) [Example 16]	13.9
CCOC(=O)C1=C(COCCOCCNCc2ccc(C#N)cc2)NC(C)=C(C(=O)OC)C1c1cccc(Cl)c1Cl (stereo not drawn) [Example 8]	6.9
CCOC(=O)C1=C(COCCOCCNCc2ccc(SC)cc2)NC(C)=C(C(=O)OC)C1c1cccc(Cl)c1Cl (stereo not drawn) [Example 9]	2.4
CCOC(=O)C1=C(COCCOCCNCc2ccccc2F)NC(C)=C(C(=O)OC)C1c1cccc(Cl)c1Cl (stereo not drawn) [Example 6]	15.2

----------
reversion factor (RF) for assorted compounds
test system: DC-3F/AD; assay: Cytotoxicity: reversal of resistance to actinomycin D (reversion factor), line DC-3F/AD; type: cell-based, Chinese hamster; details: compound 5 μM
quantity kind: reversion factor (RF)

CCOC(=O)C1=C(COCCOCCNCc2cnc3ccccc3c2)NC(C)=C(C(=O)OC)C1c1cccc(Cl)c1Cl (stereo not shown) [Example 23]	2,304.0
CCOC(=O)C1=C(COCCOCCNCc2cccc(F)c2)NC(C)=C(C(=O)OC)C1c1cccc(Cl)c1Cl (stereo not shown) [Example 5]	3,567.0
CCOC(=O)C1=C(COCCOCCNCc2cccs2)NC(C)=C(C(=O)OC)C1c1cccc(Cl)c1Cl (stereo not shown) [Example 13]	4,141.7
CCOC(=O)C1=C(COCCOCCNCc2cccc([N+](=O)[O-])c2)NC(C)=C(C(=O)OC)C1c1cccc(Cl)c1Cl (stereo not shown) [Example 2]	1,478.2

// provenance: patent US5389644A
